Some compounds, each annotated with its measured growth inhibition.
Assay: antimalarial activity against Dd2 strain (AID 2302);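 note: 0% = DMSO untreated growth and 100% = chloroquine plus artemisinin killed control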
Settings: P. falciparum Dd2 in RBCs, LDH growth readout, 72 h; at 2 µM; stronger effect = higher value
Activity calls are given as the source filed them.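 Rule for the calls: active = growth inhibition above 50% at the single 2 µM test dose, taken to imply half-maximal potency below 2 µM; inactive = the rest.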
quantity: growth inhibition

{"compound": "C=C[C@]1(C)C[C@@H](OC(=O)c2cncn(COC)c2=O)[C@]2(C)[C@H](C)CC[C@]3(CCC(=O)[C@H]32)[C@@H](C)[C@@H]1O", "quantity": "growth inhibition", "reported.measurement": "7% (inactive)"}
{"compound": "CCCC(C)n1ccc2c3c(N)nc(N)nc3ccc21 (stereo not drawn)", "quantity": "growth inhibition", "reported.measurement": "91% (active)"}
{"compound": "CC(C)N(Cc1ccc(-c2ccc(C(F)(F)F)cc2)cc1)C(=O)Cn1c(SCc2cccc(F)c2F)cc(=O)c2cc(CN3CCCCC3)ccc21", "quantity": "growth inhibition", "reported.measurement": "59% (active)"}
{"compound": "COc1ccc2ncc(F)c(CCN3CCC(CNCc4cccc5c4OCO5)CC3)c2n1", "quantity": "growth inhibition", "reported.measurement": "37% (inactive)"}
{"compound": "Cc1cccc2[nH]c(-c3cccc(-c4ccc(NC(=O)COC(C)C)cc4)c3)nc12", "quantity": "growth inhibition", "reported.measurement": "11% (inactive)"}
{"compound": "O=C(NC1CC1)c1ccc(N2CCC(COc3cccc(F)c3)CC2)nc1", "quantity": "growth inhibition", "reported.measurement": "88% (active)"}
{"compound": "O=C(/C=C/c1ccc(Cl)c(Cl)c1)NCCCCCN1CC[C@H](NC(=O)c2sc3ccccc3c2Cl)C1", "quantity": "growth inhibition", "reported.measurement": "3% (inactive)"}
{"compound": "O=C(O[C@H]1CN[C@H](C#Cc2cc3c(Nc4ccc(OCc5cccc(F)c5)c(Cl)c4)ncnc3s2)C1)N1CCCC1", "quantity": "growth inhibition", "reported.measurement": "67% (active)"}
